Tested on: Escherichia coli TOP10
Test: shrunken log2 fold change of peptide-encoding DNA abundance (4.5 h post-induction vs induction); higher = less antimicrobial activity (less host growth inhibition)
Conditions: time post-induction: 4.5 h; library: site-saturation at positions 5, 18, 19, 20
Measured Attribute: shrunken log2 fold change

Sequence Chain	Measured Attribute	Reported Measurement
RRIRGRPPRLPRPRPRPIYTPRP	shrunken log2 fold change	0.173
RRIRRRPPRLPRPRPRPGQAPRP	shrunken log2 fold change	0.0103
RRIRPRPPRLPRPRPRPWCLPRP	shrunken log2 fold change	-0.514
RRIRERPPRLPRPRPRPCACPRP	shrunken log2 fold change	-0.78
RRIRKRPPRLPRPRPRPDMLPRP	shrunken log2 fold change	-0.0389
RRIRPRPPRLPRPRPRPGQLPRP	shrunken log2 fold change	-0.0604
RRIRNRPPRLPRPRPRPNVNPRP	shrunken log2 fold change	-0.795
RRIRVRPPRLPRPRPRPHYCPRP	shrunken log2 fold change	-0.186
RRIRMRPPRLPRPRPRPHFVPRP	shrunken log2 fold change	-0.025
RRIRIRPPRLPRPRPRPTMCPRP	shrunken log2 fold change	-0.386
RRIRDRPPRLPRPRPRPIYIPRP	shrunken log2 fold change	-0.288
RRIRLRPPRLPRPRPRPQAAPRP	shrunken log2 fold change	0.0357
RRIRNRPPRLPRPRPRPDHIPRP	shrunken log2 fold change	0.00647
RRIRSRPPRLPRPRPRPISAPRP	shrunken log2 fold change	-0.256
RRIRERPPRLPRPRPRPSADPRP	shrunken log2 fold change	-0.625

* * *

System: Escherichia coli TOP10
Assay: shrunken log2 fold change of peptide-encoding DNA abundance (4.5 h post-induction vs induction); higher = less antimicrobial activity (less host growth inhibition)
Conditions: time post-induction: 4.5 h; library: site-saturation at positions 5, 18, 19, 20
We begin with a simple list: items and their reported shrunken log2 fold change.
Measured Attribute: shrunken log2 fold change

Sequence Chain	Measured Attribute	Reported Measurement
RRIRIRPPRLPRPRPRPWWGPRP	shrunken log2 fold change	0.0378
RRIRSRPPRLPRPRPRPGVGPRP	shrunken log2 fold change	0.617
RRIRKRPPRLPRPRPRPGIFPRP	shrunken log2 fold change	0.409
RRIRERPPRLPRPRPRPPVIPRP	shrunken log2 fold change	-0.257
RRIRYRPPRLPRPRPRPQDCPRP	shrunken log2 fold change	-0.363
RRIRVRPPRLPRPRPRPLTIPRP	shrunken log2 fold change	-0.329
RRIRPRPPRLPRPRPRPNGAPRP	shrunken log2 fold change	0.327
RRIRTRPPRLPRPRPRPHDGPRP	shrunken log2 fold change	-0.0845
RRIRARPPRLPRPRPRPYMWPRP	shrunken log2 fold change	-0.927
RRIRDRPPRLPRPRPRPCRTPRP	shrunken log2 fold change	-0.173
RRIRCRPPRLPRPRPRPTKYPRP	shrunken log2 fold change	-0.192
RRIRTRPPRLPRPRPRPLCNPRP	shrunken log2 fold change	-0.484
RRIRWRPPRLPRPRPRPMVDPRP	shrunken log2 fold change	-0.0461
RRIRLRPPRLPRPRPRPDTSPRP	shrunken log2 fold change	-0.114
RRIRSRPPRLPRPRPRPYSSPRP	shrunken log2 fold change	-0.271

* * *

System: Escherichia coli TOP10;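 also: peptides expressed intracellularly from a pBAD plasmid library in pooled LB shake-flask culture, induced with 0.3% L-arabinose, DNA abundance read by NGS, three biological replicates, DESeq2 with apeglm shrinkage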
Assay: shrunken log2 fold change of peptide-encoding DNA abundance (4.5 h post-induction vs induction); higher = less antimicrobial activity (less host growth inhibition)
Conditions: time post-induction: 4.5 h; library: site-saturation at positions 5, 18, 19, 20
So basically every entry gets a class from its shrunken log2 fold change, ranges being 0: < -0.1; 1: ≥ -0.1 and < 0.04; 2: ≥ 0.04

Sequence Chain	Label Value
RRIRGRPPRLPRPRPRPVHCPRP	1
RRIRERPPRLPRPRPRPNSNPRP	0
RRIRTRPPRLPRPRPRPWDVPRP	1
RRIRDRPPRLPRPRPRPRGNPRP	2
RRIRFRPPRLPRPRPRPWWFPRP	0
RRIRVRPPRLPRPRPRPNPGPRP	0
RRIRDRPPRLPRPRPRPVNIPRP	2
RRIRFRPPRLPRPRPRPGMCPRP	1
RRIRYRPPRLPRPRPRPEGGPRP	1
RRIRARPPRLPRPRPRPHFLPRP	0
RRIRNRPPRLPRPRPRPKWAPRP	1
RRIRLRPPRLPRPRPRPMSDPRP	1
RRIRWRPPRLPRPRPRPDPSPRP	1
RRIRLRPPRLPRPRPRPLLFPRP	0
RRIRHRPPRLPRPRPRPMSEPRP	2
RRIRLRPPRLPRPRPRPIFAPRP	2
RRIRDRPPRLPRPRPRPSTAPRP	2
RRIRYRPPRLPRPRPRPCSDPRP	0
RRIRYRPPRLPRPRPRPHPKPRP	1
RRIRIRPPRLPRPRPRPSTHPRP	0
RRIRQRPPRLPRPRPRPMCKPRP	1
RRIRDRPPRLPRPRPRPELTPRP	2
RRIRYRPPRLPRPRPRPEATPRP	2
RRIRLRPPRLPRPRPRPFEIPRP	1
RRIRRRPPRLPRPRPRPNNKPRP	0
RRIRQRPPRLPRPRPRPPESPRP	2
RRIRPRPPRLPRPRPRPCRGPRP	0
RRIRLRPPRLPRPRPRPLSYPRP	2
RRIRCRPPRLPRPRPRPFSVPRP	0
RRIRKRPPRLPRPRPRPILAPRP	2
RRIRSRPPRLPRPRPRPSSLPRP	0
RRIRPRPPRLPRPRPRPYPAPRP	0
RRIRSRPPRLPRPRPRPAWMPRP	0
RRIRCRPPRLPRPRPRPVWMPRP	0
RRIRIRPPRLPRPRPRPHKYPRP	0
RRIRWRPPRLPRPRPRPLQTPRP	2
RRIRPRPPRLPRPRPRPDMVPRP	0
RRIRDRPPRLPRPRPRPVMNPRP	0
RRIRERPPRLPRPRPRPPEWPRP	1
RRIRRRPPRLPRPRPRPIFRPRP	2
RRIRFRPPRLPRPRPRPWDWPRP	2
RRIRFRPPRLPRPRPRPHHMPRP	2
RRIRHRPPRLPRPRPRPKLTPRP	1
RRIRIRPPRLPRPRPRPFNCPRP	1
RRIRVRPPRLPRPRPRPFMKPRP	0
RRIRHRPPRLPRPRPRPPSCPRP	2
RRIRLRPPRLPRPRPRPVKYPRP	0
RRIRPRPPRLPRPRPRPKSIPRP	0
RRIRSRPPRLPRPRPRPHDFPRP	1
RRIRHRPPRLPRPRPRPVKLPRP	0
RRIRTRPPRLPRPRPRPTGYPRP	1
RRIRFRPPRLPRPRPRPYCDPRP	0
RRIRVRPPRLPRPRPRPFCKPRP	0
RRIRYRPPRLPRPRPRPLTRPRP	1
RRIRCRPPRLPRPRPRPEMVPRP	1
RRIRTRPPRLPRPRPRPHENPRP	1
RRIRCRPPRLPRPRPRPRMDPRP	1
RRIRKRPPRLPRPRPRPEVNPRP	2
RRIRFRPPRLPRPRPRPPPHPRP	2
RRIRDRPPRLPRPRPRPEYWPRP	2
RRIRKRPPRLPRPRPRPGIDPRP	2
RRIRGRPPRLPRPRPRPVWVPRP	2
